assay: A CellTox Green Cytotoxicity Assay to monitor cytotoxicity in HepG2 cells - 16 hour (AID 1224876); settings: CellTox Green fluorescence; series mostly up to 76.8 µM; further: on the % scale 0 is the no-effect control and ±100 the full control effect; nearly all actives have a fitted effect of over 45% in size
Records with an inconclusive call do not appear. Calls of active or inactive are those of the source. The call rests on the fitted dose curve; in most records, active means well fitted activation curve with a large enough effect in the repeat runs; inconclusive means weak or mixed curves; inactive means flat fitted curve, though single readings scatter.
Measurement kind: cytotoxicity increase

1. CCC(=O)CC(C)CC (stereo not given) = 5.23% [at 0.29 µM] (inactive)
2. CCN1CCN(c2cc(-c3ccc(F)cc3)c3c(n2)CCCCCC3)CC1 = 12.3% [at 15.8 µM] (inactive)
3. C=CC(=C)CC/C=C(\C)CCC=C(C)C = 1.01% [at 15.8 µM] (inactive)
4. CCCCCCCCCCCCCCCCCO = 1.01% [at 15.8 µM] (inactive)
5. COc1cc(C(C)C)c2c(c1)S(=O)(=O)N(COc1cc(=O)n3cccc(OCCN4CCCCC4)c3n1)C2=O = 19.8% [at 15.8 µM] (inactive)
